Numbers sourced from patent US11918668B2.

# test.description: Measurement of total area by solid phase microextraction GC/FID method
# Format: physicochemical
# Set-up: unit not given here
# experimental.context: total area attributable to components other than the glyceryl ethers; 1.0 g glyceryl ether, 15 minutes at 50° C., after deodorization for the stated time
measured.property: Total area

Enquiry: Give a short answer stating reported Total area for CCCCCCOCC(O)CO (stereo not drawn) [Glyceryl ether 7, Monohexyl glyceryl ether] .
Return: 50,000

Enquiry: Give a short answer stating reported Total area for OCC(O)COC1CCCCC1 (stereo not drawn) [Glyceryl ether 12, Monocyclohexyl glyceryl ether] .
Return: 50,000

Enquiry: Give a short answer stating reported Total area for OCC(O)COC1CCCCC1 (stereo not drawn) [Glyceryl ether 9, Monocyclohexyl glyceryl ether] .
Return: 150,000

Enquiry: Give a short answer stating reported Total area for OCC(O)COC1CCCCC1 (stereo not drawn) [Glyceryl ether 10, Monocyclohexyl glyceryl ether] .
Return: 90,000

Enquiry: Give a short answer stating reported Total area for CCCCCCOCC(O)CO (stereo not drawn) [Glyceryl ether 4, Monohexyl glyceryl ether] .
Return: 80,000

Enquiry: Give a short answer stating reported Total area for CCCCCCOCC(O)CO (stereo not drawn) [Glyceryl ether 3, Monohexyl glyceryl ether] .
Return: 80,000

Enquiry: Give a short answer stating reported Total area for CCCCCCOCC(O)CO (stereo not drawn) [Glyceryl ether 2, Monohexyl glyceryl ether] .
Return: 120,000

Enquiry: Give a short answer stating reported Total area for CCCCCCOCC(O)CO (stereo not drawn) [Glyceryl ether 5, Monohexyl glyceryl ether] .
Return: 60,000

Enquiry: Give a short answer stating reported Total area for OCC(O)COC1CCCCC1 (stereo not drawn) [Glyceryl ether 11, Monocyclohexyl glyceryl ether] .
Return: 50,000

Enquiry: Give a short answer stating reported Total area for CCCCCCOCC(O)CO (stereo not drawn) [Glyceryl ether 6, Monohexyl glyceryl ether] .
Return: 50,000

Enquiry: Give a short answer stating reported Total area for OCC(O)COC1CCCCC1 (stereo not drawn) [Glyceryl ether 8, Monocyclohexyl glyceryl ether] .
Return: 300,000

Enquiry: Give a short answer stating reported Total area for CCCCCCOCC(O)CO (stereo not drawn) [Glyceryl ether 1, Monohexyl glyceryl ether] .
Return: 200,000
